Each record here notes measured percentage of reduction of the infestation (percentage mortality of larvae), Spodoptera L.
# Test system: Spodoptera littoralis
# Method summary: Biological activity on Spodoptera littoralis (Lepidoptera), 5-days old larvae
# Assay type: in vivo
# Setup conditions: 0.1 permill.; 48 hours after treatment
Measured parameter: percentage of reduction of the infestation (percentage mortality of larvae), Spodoptera L

{"Compound": "CCOP(=S)(OCC)Oc1cc(Cl)nn1C(C)C [Compound 5]", "Target": "Spodoptera littoralis", "Result": "60%"}
{"Compound": "CCOP(=S)(OCC)Oc1cc(Cl)n(-c2ccc([N+](=O)[O-])cc2)n1 [Compound 52]", "Target": "Spodoptera littoralis", "Result": "95%"}
{"Compound": "CCOP(=S)(OC)Oc1cc(Cl)nn1-c1ccccc1 (stereo not shown) [Compound 37]", "Target": "Spodoptera littoralis", "Result": "100%"}
{"Compound": "COP(=S)(OC)Oc1cc(Cl)nn1-c1ccccc1 [Compound 1]", "Target": "Spodoptera littoralis", "Result": "100%"}
{"Compound": "CCn1nc(Cl)cc1OP(=S)(OC)OC [Compound 21]", "Target": "Spodoptera littoralis", "Result": "70%"}
{"Compound": "CCOP(=S)(OCC)Oc1cc(Cl)nn1-c1ccccc1 [Compound 2]", "Target": "Spodoptera littoralis", "Result": "100%"}
{"Compound": "CCOP(=S)(OCC)Oc1cc(C)[nH]n1 [Pyrazothion, reference compound]", "Target": "Spodoptera littoralis", "Result": "0%"}
{"Compound": "CCOP(=S)(OCC)Oc1cc(Cl)nn1CCC#N [Compound 7]", "Target": "Spodoptera littoralis", "Result": "100%"}
{"Compound": "COP(=S)(OC)Oc1cc(Cl)nn1C(C)C [Compound 4]", "Target": "Spodoptera littoralis", "Result": "80%"}
{"Compound": "CCOP(=S)(OCC)Oc1cc(C=C(Cl)Cl)nn1C [Compound 6]", "Target": "Spodoptera littoralis", "Result": "100%"}
{"Compound": "COP(=S)(OC)Oc1cc(Cl)nn1C [Compound 14]", "Target": "Spodoptera littoralis", "Result": "82%"}
{"Compound": "CCOP(=S)(OCC)Oc1cc(Cl)nn1CC [Compound 3]", "Target": "Spodoptera littoralis", "Result": "82%"}
{"Compound": "CCOP(=S)(OCC)Oc1cc(Cl)nn1Cc1ccccc1 [Compound 29]", "Target": "Spodoptera littoralis", "Result": "100%"}
{"Compound": "CCOP(=S)(NC(C)C)Oc1cc(Cl)nn1C (stereo not shown) [Compound 49]", "Target": "Spodoptera littoralis", "Result": "15%"}
{"Compound": "CCOP(=S)(OC)Oc1cc(Cl)nn1CC (stereo not shown) [Compound 24]", "Target": "Spodoptera littoralis", "Result": "90%"}
{"Compound": "CCOP(=S)(OC)Oc1cc(Cl)nn1C (stereo not shown) [Compound 23]", "Target": "Spodoptera littoralis", "Result": "100%"}
{"Compound": "CCOP(=S)(OC)Oc1cc(Cl)n(-c2ccc([N+](=O)[O-])cc2)n1 (stereo not shown) [Compound 51]", "Target": "Spodoptera littoralis", "Result": "100%"}
{"Compound": "CCOP(=S)(OCC)Oc1cc(Cl)nn1C [Compound 13]", "Target": "Spodoptera littoralis", "Result": "100%"}
{"Compound": "CCOP(=S)(OCC)Oc1cc(C=C(Cl)Cl)nn1CCC#N [Compound 9]", "Target": "Spodoptera littoralis", "Result": "100%"}
